tested on: HEK293/CRE-Luc cells; test: Luciferase reporter assay, HEK293/CRE-Luc cells without GLP1R (Example 17); type: cell-based, human; details: HEK293/CRE-Luc cells without hGLP1R; payloads and linker-payloads
Where a SMILES comes first, the peptide text is derived from it. [ ]: non-standard residue; d: D form. Bip(2'-Et,4'-O(CH2)4NH2) = CCc1cc(OCCCCN)ccc1-c1ccc(C[C@H](N)C(=O)O)cc1; Nva(5-(3,5-Me2Ph)) = Cc1cc(C)cc(CCC[C@H](N)C(=O)O)c1; Ala(1H-tetrazol-5-yl) = N[C@@H](Cc1nnn[nH]1)C(=O)O; αMePhe(2-F) = C[C@](N)(Cc1ccccc1F)C(=O)O; Aib = CC(C)(N)C(=O)O
Known S/N of a selection of compounds

COMPOUND | S/N
CCc1cc(OCCCCN)ccc1-c1ccc(C[C@H](NC(=O)[C@H](CC(=O)O)NC(=O)[C@H](CO)NC(=O)[C@@H](NC(=O)[C@](C)(Cc2ccccc2F)NC(=O)[C@@H](NC(=O)CNC(=O)[C@H](Cc2nn[nH]n2)NC(=O)[C@@H](N)CO)[C@@H](C)O)[C@@H](C)O)C(=O)N[C@@H](CCCc2cc(C)cc(C)c2)C(N)=O)cc1 [P7] (H-S[Ala(1H-tetrazol-5-yl)]GT[αMePhe(2-F)]TSD[Bip(2'-Et,4'-O(CH2)4NH2)][Nva(5-(3,5-Me2Ph))]-NH2) | 1.0
CCc1cc(OCCCCN)ccc1-c1ccc(C[C@H](NC(=O)[C@H](CC(=O)O)NC(=O)[C@H](CO)NC(=O)[C@@H](NC(=O)[C@](C)(Cc2ccccc2F)NC(=O)[C@@H](NC(=O)CNC(=O)[C@H](Cc2nn[nH]n2)NC(=O)C(C)(C)NC(=O)[C@@H](N)Cc2ccc(O)cc2)[C@@H](C)O)[C@@H](C)O)C(=O)N[C@@H](CCCc2cc(C)cc(C)c2)C(N)=O)cc1 [P19] (H-Y[Aib][Ala(1H-tetrazol-5-yl)]GT[αMePhe(2-F)]TSD[Bip(2'-Et,4'-O(CH2)4NH2)][Nva(5-(3,5-Me2Ph))]-NH2) | 1.0

* * *

biological target: human GLP1R (Homo sapiens); experiment: Luciferase reporter assay, HEK293/CRE-Luc/hGLP1R (Example 17); format: cell-based; parameters: engineered to express full-length human GLP1R, cynomolgus GLP1R; expressed in transfected cells; host or cells: HEK293/CRE-Luc; conditions: HEK293/CRE-Luc/hGLP1R; highest RLU / RLU of untreated wells
Sequence (P43220 24-463): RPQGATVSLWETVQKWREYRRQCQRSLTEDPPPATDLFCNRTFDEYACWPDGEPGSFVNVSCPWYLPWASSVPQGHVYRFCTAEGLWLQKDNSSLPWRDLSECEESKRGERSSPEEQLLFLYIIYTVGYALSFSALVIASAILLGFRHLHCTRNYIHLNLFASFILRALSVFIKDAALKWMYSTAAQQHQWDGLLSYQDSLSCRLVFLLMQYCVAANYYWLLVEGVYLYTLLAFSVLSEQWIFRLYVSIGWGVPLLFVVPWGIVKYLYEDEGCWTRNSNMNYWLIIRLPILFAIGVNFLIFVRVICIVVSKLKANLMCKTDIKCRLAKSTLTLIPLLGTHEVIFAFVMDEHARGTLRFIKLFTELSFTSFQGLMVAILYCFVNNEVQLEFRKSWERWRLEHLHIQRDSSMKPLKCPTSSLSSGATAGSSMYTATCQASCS
Where a SMILES comes first, the peptide text is derived from it. [ ]: non-standard residue; d: D form. The star is where a group is joined. Bip(2'-Et,4'-O(CH2)4NH2) = CCc1cc(OCCCCN)ccc1-c1ccc(C[C@H](N)C(=O)O)cc1; Nva(5-(3,5-Me2Ph)) = Cc1cc(C)cc(CCC[C@H](N)C(=O)O)c1; Ala(1H-tetrazol-5-yl) = N[C@@H](Cc1nnn[nH]1)C(=O)O; αMePhe(2-F) = C[C@](N)(Cc1ccccc1F)C(=O)O; Desaminohistidyl = O=C(CCc1c[nH]cn1)*

COMPOUND | S/N
CCc1cc(OCCCCN)ccc1-c1ccc(C[C@H](NC(=O)[C@H](CC(=O)O)NC(=O)[C@H](CO)NC(=O)[C@@H](NC(=O)[C@](C)(Cc2ccccc2F)NC(=O)[C@@H](NC(=O)CNC(=O)[C@H](Cc2nn[nH]n2)NC(=O)CNC(=O)CCc2cnc[nH]2)[C@@H](C)O)[C@@H](C)O)C(=O)N[C@@H](CCCc2cc(C)cc(C)c2)C(N)=O)cc1 [P12] (Desaminohistidyl-G[Ala(1H-tetrazol-5-yl)]GT[αMePhe(2-F)]TSD[Bip(2'-Et,4'-O(CH2)4NH2)][Nva(5-(3,5-Me2Ph))]-NH2) | 76.4
CCc1cc(OCCCCN)ccc1-c1ccc(C[C@H](NC(=O)[C@H](CC(=O)O)NC(=O)[C@H](CO)NC(=O)[C@@H](NC(=O)[C@](C)(Cc2ccccc2F)NC(=O)[C@@H](NC(=O)CNC(=O)[C@@H](N)Cc2nn[nH]n2)[C@@H](C)O)[C@@H](C)O)C(=O)N[C@@H](CCCc2cc(C)cc(C)c2)C(N)=O)cc1 [P2] | 306.2
CCc1cc(OCCCCn2cc(COCCOCCOCCOCCNC(=O)OC[C@@H]3[C@@H]4CCC#CCC[C@@H]43)nn2)ccc1-c1ccc(C[C@H](NC(=O)[C@H](CC(=O)O)NC(=O)[C@H](CO)NC(=O)[C@@H](NC(=O)[C@](C)(Cc2ccccc2F)NC(=O)[C@@H](NC(=O)CNC(=O)[C@H](Cc2nn[nH]n2)NC(=O)C(C)(C)C(=O)NCCc2cnc[nH]2)[C@@H](C)O)[C@@H](C)O)C(=O)N[C@@H](CCCc2cc(C)cc(C)c2)C(N)=O)cc1 [LP9, BCN-PEG4-triazole-P8] | 73.8
